Experiment: soluble on expression in E. coli; label from the status in PepcDB or PDB records
READOUT: soluble on expression in E. coli

Look over these answered cases.
| SEQ STRING | soluble on expression in E. coli |
| --- | --- |
| AVNEENIMIPKGVEVYEITGPYFFGIATKFEETMAQLGDRPNVRIIRMRKVPFIDSTGIHNLTTLCEMSQKEKITVILSGVNEKVYKVLEKSGFYELLGKENICPNFKIALDRAEEV | not soluble |
| MSLKITDVKVWLVQGIKYNWTLLKIYTDEGYTGVGEATNWPGSPIVFEAAKHVGQRIIGLDPMKTDFIWTKLYRDLNWIGPYGASLCAISGIDMALLDLKAKVLGVPCYELLGGAYRKDIQLYANYWFTGGGHNEADYAAQARRVMDAGFTGLKFDPFAHTNYFYGEDLASNLTLTAEQQDLAFNVSKAVREAVGSECDIMIETHAMLNYRVAVKMAERLAKLDITWYEEPAGPESSQTLRAMRERIPSDVAICVGERHYTRFGIRSLLEKHVCDVIMPDITRCGGPSEMKRMATMAEAYNVLIAPHNPNGPLSTLASSHVCAAIPNFFRQEFMFNDVPWRDTVIDHPIAEMVYDGHLHLSDRPGLGVDLVEEEMEKHPGITTDAPDNFYIEGHHHHHH | soluble |
| MAHHHHHHMYQGRSQQPLWTPPPNFSQVETGIYRSAYPTLASVPFLHHIGIKTIVLLSIELLPVPVVRAISEGDVVAGTTSVSDDVHAWKDNECIKWPIRIVSTADLSEWMNEYVCAKDDFAVSSVQRALDFALQPDFQPVLFTCPTGELQTSVIVGCMRRHQGWSLAAVLAECELFVNVTGGVRQSVMNFIEQWDPDEHPVREEDIAKRKRELLLRDPSLSYSVKRHRRTVTHSASDPDSEYDDPLAMGTSRLGQKGTAGNSAGMGLSLSPYKSSGFDRSTLSSTRVGGDELGLSHSSHVVIKLASWYTAAMKRRAAAAEAIVAARAKVRAPSDPLPEPHERYFGVLNPPALDERSTFTKKSIVQDLD | not soluble |
| MAHHHHHHVREEKLRLRKQIIEHMNSLSKERYTTLSEQIVFSLYEQKEWAEAKTIGITLSMENEVNTYPIIEKAWKEGKRVVVPKCNKETRTMSFRQISNFDQLETVYMNLREPIPALTEEVNADEIDLQIVPGVAYTERGERIGYGGGYYDRYLVHYKGKTLSLAYSFQMVEHIPVEPFDKNVEKIITEKGTMVKNGLV | soluble |
| LDIQMTQSPSSLSASLGERVSLTCRASQEISGYLYWLQQKPDGTIKRLIYAGSTLDSGVPKRFSGSRSGSDYSLTISSLESEDFADYYCLQYASYPRTFGGGTKVEIKRTVAAPSVFIFPPSDEQLKSGTASVVCLLNNFYPREAKVQWKVDNALQSGNSQESVTEQDSKDSTYSLSSTLTLSKADYEKHKVYACEVTHQGLSSPVTKSFNRGECGAGA | soluble |

The sequence listed as `MGHHHHHHSHMGGLPMISASLQQRKTRTRRSMLFVPGANAAMVSNSFIYPADALMFDLEDSVALREKDTARRMVYHALQHPLYRDIETIVRVNALDSEWGVNDLEAVVRGGADVVRLPKTDTAQDVLDIEKEILRIEKACGREPGSTGLLAAIESPLGITRAVEIAHASERLIGIALGAEDYVRNLRTERSPEGTELLFARCSILQAARSAGIQAFDTVYSDANNEAGFLQEAAHIKQLGFDGKSLINPRQIDLLHNLYAPTQKEVDHARRVVEAAEAAAREGLGVVSLNGKMVDGPVIDRARLVLSRAELSGIREE` has a reported soluble on expression in E. coli of not soluble

###

Assay: soluble on expression in E. coli; label from the status in PepcDB or PDB records
READOUT: soluble on expression in E. coli

| SEQ STRING | REPORTED MEASUREMENT |
| --- | --- |
| MSPAPSRPFSVLRANDVLWLSLTAAEYDQSTYGSSTGPVYVSDSVTLVNVATGAQAVARSLDWTKVTLDGRPLSTIQQHSKTFFVLPLRGKLSFWEAGTTKAGYPYNYNTTASDQLLVENAAGHRVAISTYTTSLGAGPVSISAVAVLA | soluble |
| MLNEGAKNTEKQKVMEIITVAEPMSESELESIRNFLFRIIRREFGFGYIPEYHRDIINLEEYYLKPPRNIFLFASQGGRVIGTLGLRAYDREFEGLNYDPETTASLWRVFVDEDHRRMGVASRLVEIAEKEAASLGYQRIYLHTHKYVGGALEFWLSRGYRVTVDTGNELGTVHMEKTLSCNSNAITRIPEKTSELSHSLPRTQKV | soluble |

###

Experiment: soluble on expression in E. coli; label from the status in PepcDB or PDB records

| SEQ STRING | soluble on expression in E. coli |
| --- | --- |
| MGSDKIHHHHHHMSRLLRSPQTGAGKLFSAASSENFSKQNLIDAVIKEARRKVMEAEFQKKFMQSWSRYFPGAELPIGFYYTDSAETKFMAKPPKRHRCIIGDLAKVRKGKPQCFDNNAIGCFGGKRYLGFESKLTPDFEYFLSCGIPGKIEGERYKKSPELVKEHLKHQQPLKAPGNYIIFKRWDQMENADIPSVVIFFAAPDVLSGLFTLANFDETHPHGVIAPFGAGCASIVDYPYKELNSPDPRSVLGMFDVSARPCVPSNVLTFAVPWPKFVRMVGNMDESFLITRSWNKVKTRIKKEHAKSNDK | not soluble |
| TELTKCKVSHAIKDIDGYQGISLLEWACVLFHTSGYDTQAVVNDNGSTEYGLFQISDRFWCKSSEFPESENICGISCDKLLDDELDDDIACAKKILAIKGIDYWKAYKPMCSEKLEQWRCEKP | soluble |
| MHSRSVKFPSSKGHQIAGTIDFPDGTPRAFAMFAHCFTGSRFTPGAARVSKELAERGIACLRFDFPGLGQSEGIFSETSFSENVADIKAAADWLGQHYSAPQLLIGHSLGGAASLKAATTLKCLRGVATIGAPFDPAHAVLHFADRIGEVDENGAVTLTLGGRDITISREFLEDLADTNPEAYLPRLRKPLLILHSPIDQTVGVDNAQLIFRTTRYPKSLVALDKVDHLLTKQGSAQQAARIINTWFEQHIVAENEDPNADTLPEGVAVAQSIPAGKFADIVHTGTHSFTTDREKALGGKNLGVSPTSLLISALAAATSQEIRLAAKESRIHSLEDVNVTISKTVGDGERVHLRRNISLVGDLTDDERHELLLAARNSDIEKMLQGNVTINDQDV | not soluble |
| MNVCFFPRLKEFILNQDWNDPKSQLQQCCLTLRTEGKEPDIPLYKTLQTVGPSHARTYTVAVYFKGERIGCGKGPSIQQAEMGAAMDALEKYNFPQMAHQKRFIERKYRQELKEMRWEREHQEREPEEAEDIKK | soluble |

###

Test: soluble on expression in E. coli; label from the status in PepcDB or PDB records

| SEQ STRING | soluble on expression in E. coli |
| --- | --- |
| VADTDGHYRVRAITEISSFNETLGATFSDKEFDTIGGLVINKFGRLPKNGESITIEGFNFTVTRADSRRLHLLKVERIEPGVVEDADSHDSV | not soluble |
| MGSDKIHHHHHHMRLPPLNALRAFEAAARHNGYIAAAEELCVTRGAVSRHIKLLEDHLGVTLFHRNHRGVELTAAGRQLLPVLTETFARIAREAEQISAMTRDVRIICPPALSIRWLFPRLEEFQAAHPDIRVRLTTEFYGAKGFDDTEHDLGVSVEHVSGRGAGIASMPLFPMVLSPACSPALLRQRPLSAPADLARMTLLHESPQRRDWAHWLSSFGVRGVDAGSGPTFPNLDMAARAATMGAGVVMADLALCQEELRAGTLVLPFPEMTCTTPQGGYVLLGARARWDEPHLRAFRDWAASSSADLVACMGA | not soluble |

###

Assay: soluble on expression in E. coli; label from the status in PepcDB or PDB records
READOUT: soluble on expression in E. coli

| SEQ STRING | READOUT | REPORTED MEASUREMENT |
| --- | --- | --- |
| MGSDKIHHHHHHMREIMSIITLPRKIYQQRDIIDNIRETLQLKEPILLVSDRNIMKLYGQRIKNALDGSDYRVIEDVRPEPEVSDIENTYRSLSGFQPKTIIAFGGGSVIDFAKSIDVKISYPDRSLEEVNPFEPLNLKADLVAIPTTSGTGSDVSFGIVITDQGRKLALGNFDLVPYVSVLDSSLVPSDPSIIRPTGVDALVHSFEALTANTSSIFTDALAEKAIETIFGILIDPMKGEEDARENMHLAATMAGISFTNSGTALAHALGHSFGSTHHVVHGTCVGLFLPYVIEFNSSDENASEKYARIARRLGYKDAISALRDLYRRIGQPLTVAEIGIPKDAYMKSLDSMVEKALADSELAFNPVIAGDEDVRSIYIKAYGD | soluble on expression in E. coli | not soluble |
| MGSDKIHHHHHHASNPVLRISDGWVADTIAPALIHYRFAGYDSISQAHQNVDVLEVDLTSPSYDIQLVYEEHGDSLSSVAERNNAAAAINGTYEAEASFIKIGGRLLAQNRLDSTHIRYWKHEGAFLFDDDNKNIDIRFASDSTFLSHPAANILSGAPMLIDNNDPVGLNFTGNVEGMDLNKLDYEDFRRHQGVRHPRTAVALTEHKKLLLITVDGRSTQAAGMSANELTRFLLTYFCPQSALNLDGGGSTTMWIASSEQRVGGVVNHPTDNKKFDHAGQRRVTSFIVIKSSENHE | soluble on expression in E. coli | not soluble |

Origin of measurements: the DeepSol protein solubility set
